- TARGET_OF_ASSAY: T1, CD4 cell surface receptor molecule on peripheral blood mononuclear cells (PBMCs) (human, UniProt P01730 26-458)
- T1 construct: whole, on cells; also called CD4 receptor molecule
- ASSAY_PROCEDURE: flow cytometry, PBMCs, live CD3+ T cells; column 'Fab monomer -> ST-PE': cells incubated with monomeric Fab, washed, then stained with Strep-Tactin PE; y axis CD4 Fab-multimer / Fab-monomer, x axis CD8
READOUT: percentage of cells within gate (%)
State the answer as a number, implicitly in %.

Consider Mutant 13B8.2 Fab fragment with Tyr at position 92 of the light chain mutated to Ala, heavy chain fused to One-STrEP-tag (Fab, V domains shown, also called CD4 mutant 2 (Y92A); mutant 2) VH: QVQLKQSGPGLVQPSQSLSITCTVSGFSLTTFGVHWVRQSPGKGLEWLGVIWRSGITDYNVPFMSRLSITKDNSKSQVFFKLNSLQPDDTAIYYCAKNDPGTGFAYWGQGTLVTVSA VL: DIQMTQSPASLSASVGETVTFTCRASEMIYSYLAWYQQKQGKSPQLLVHDAKTLAEGVPSRFSGGGSGTQFSLKINTLQPEDFGTYYCQHHAGNPPTFGGGTKLEIKR . Its measured percentage of cells within gate is 0.0022
